List of logP values.
Respond numerically, and do not add a unit to the figure.

Please review the following examples before continuing.
>>> meas_value("O=C(O)/C=C/C(=O)c1cccnc1")
0.26
>>> meas_value("CS(=O)CCCOc1ccc([N+](=O)[O-])cc1 (centres undefined)")
0.93
>>> meas_value("N=C(N)NN=Cc1ccc(Br)cc1")
1.3
>>> meas_value("NC(=S)NN=Cc1ccc([N+](=O)[O-])o1")
1.64
>>> meas_value("Cc1nc2ccc([N+](=O)[O-])cc2[nH]1")
1.94
>>> meas_value("COC1=C(OC)C(=O)C=CC1=O")
0.34

Here is another molecule to look at.
Give the measured logP of CCCN(C)N=O .
0.56

---

Record Y whenever logP is at 2 or higher; record N when lower.

Before answering, review these 8 worked examples.
>>> class("COc1ccc(C(=O)CCCC(=O)O)cc1Cl")
"Y"
>>> class("CCON=C(CC)C1=C(O)CC(c2c(C)cc(C)cc2C)CC1=O (stereo unspecified)")
"Y"
>>> class("Cc1cc(Cl)ccc1OCC(=O)O")
"Y"
>>> class("O=C1CCC(c2cccnc2)N1 (stereo unspecified)")
"N"
>>> class("NC(=O)CN1CCCC1=O")
"N"
>>> class("N[C@@H](Cc1cnc[nH]1)C(=O)O")
"N"
>>> class("Nc1c(Oc2ccccc2)c(Oc2ccccc2)c(N)c2c1C(=O)c1ccccc1C2=O")
"Y"
>>> class("Oc1ncnc2[nH]ncc12")
"N"

Form field: logP at least 2? Entry: Nc1c(OC2C=CC(N3CCCCCC3=O)=CC2)cc(O)c2c1C(=O)c1ccccc1C2=O (stereo unspecified)
Y

Entry Cc1ccc(C(C)C)c(OCCN(C)C)c1 please
Y

Entry COC(=O)c1cc2ccccc2[nH]1 please
Y

Entry CCOC(=O)[C@@H](N)Cc1ccc(O)c(O)c1 please
N

Entry c1ccc2[nH]c(-c3cscn3)nc2c1 please
Y

Entry COC(=O)[C@@H](N)Cc1ccc(O)c(O)c1 please
N

Entry CCCCOCCNc1ccccc1C(N)=O please
Y

Entry Nc1ccc(Cl)c(N)c1 please
N

Entry ClC1=C(Cl)C2(Cl)C3C(Cl)C=CC3C1(Cl)C2(Cl)Cl (stereo unspecified) please
Y

Entry CC(C)(O)C(=O)Nc1ccc([N+](=O)[O-])c(C(F)(F)F)c1 please
Y

Entry CCCOc1ccc([N+](=O)[O-])cc1NC(C)=O please
N

---

So basically: is logP under 1? Then True. Not under? Then False.

Before answering, review these 3 worked examples.
>>> class("Cc1c(CNc2ccccc2)cnc2nc(N)nc(N)c12")
"False"
>>> class("CC[N+](CC)(CC)CC.[Cl-]")
"True"
>>> class("CNS(=O)(=O)c1ccc(Cl)cc1")
"False"

Hi there! Is logP for CCCN(CCOc1c(Cl)cc(Cl)cc1Cl)C(=O)n1ccnc1 below 1, do you know?
False

Entry CC(=O)O[C@@H]1C[C@H]2CC[C@]1(C)C2(C)C please
False

Entry CC(C)C1(C)N=C(c2nc3ccccc3cc2C(=O)O)NC1=O (stereo not given) please
False

---

settings: pH 7.0
measured.attribute: logD

Give the measured logD of Cc1nn(-c2cc(NS(C)(=O)=O)c(Cl)cc2Cl)c(=O)n1C(F)F .
0.99

Reference source: the OPERA property sets (Mansouri et al. 2018)
